# Measurement target: Cellular tumor antigen p53 (Homo sapiens)
# Experiment description: nuclear p53 accumulation, HPV+ cells – imaging, p53-positive nuclei imaging, 24 h, 48 h (AID 1508601)
# Condition info: 24/48 h, Library stock concentration: 1.67 mM, active compounds read high
About 85 (1%) of roughly 5,700 compounds were called active. The full list was thinned out, with actives kept by preference.
Measurement label: p53-positive nuclei, normalised (%)
// note: answer is a bare numeric in %

IN: Entry under review: Cc1cc(C)c(N(Cc2ccccc2)S(=O)(=O)c2ccc(OCCNC(=O)c3cc4ccccc4o3)cc2)c(C(=O)NO)c1 . Reported p53-positive nuclei, normalised?
OUT: -0.271

Where these numbers come from: PubChem BioAssay AID1508601
